- testDescription: chemical genetic growth profiling, strain panel (AID 1159580);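 note: tested at 20 µM; growth read once vehicle control cultures reached saturation at 30 °C; 1 = growth at the plate median or of vehicle wells; lower values mean less growth of the strain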
- testContext: S. cerevisiae deletion strains, growth OD, locus YMR129W, stronger effect = lower value
The whole screen tested about 5,500 compounds, of which about 2,000 (36%) were called active. About 18% were inconclusive and are not listed. This is one part of the list.
A collection of molecules and their measured normalized growth

{"molecule": "CC(=O)[C@H]1CCC2C3CC=C4C[C@@H](OC(=O)CCC(=O)O)CC[C@]4(C)C3CC[C@@]21C (some centres undefined)", "recordedEndpoint": "normalized growth", "testResult": "0.968 (inactive)"}
{"molecule": "O=C1CN2Cc3c(ccc(Cl)c3Cl)N=C2N1", "recordedEndpoint": "normalized growth", "testResult": "0.964 (inactive)"}
{"molecule": "COc1cc([C@@H]2c3cc4c(cc3[C@H](O)[C@H]3COC(=O)[C@@H]23)OCO4)cc(OC)c1OC", "recordedEndpoint": "normalized growth", "testResult": "1.02 (inactive)"}
{"molecule": "CC(C)c1ccc2c(c1O)CC[C@H]1C3=C(CC[C@]21C)C(=O)OC3", "recordedEndpoint": "normalized growth", "testResult": "0.96 (inactive)"}

Query block: Return the recorded normalized growth value; entry: C=C1C(N)CC2CC1C2(C)C (centres undefined)
Result block: 1.02 (inactive)

Query block: Dear colleague, please send me the reported normalized growth for C=CCc1ccccc1OCC(O)CNC(C)C (centres undefined) when you can.
Result block: 1 (inactive)

Query block: Report normalized growth, nothing else, for this molecule: CC(C(=O)O)[C@H]1CCC2C3CC=C4C[C@@H](O)CC[C@]4(C)C3CC[C@@]21C (some centres undefined)
Result block: 1.03 (inactive)

Query block: Identify normalized growth associated with the molecule O=C1CC[C@]23C=CC(=O)NCCCCNCCCNC(=O)/C=C/c4ccc(c2c4)O[C@@H]3C1
Result block: 1 (inactive)

Query block: Provide one value: measured normalized growth of CC(=O)OCC(=O)[C@@]1(O)CCC2C3CC[C@@H]4C[C@H](O)CC[C@]4(C)C3C(=O)C[C@@]21C (some centres undefined)
Result block: 1.01 (inactive)
